Attribute: HepSE_hepatitis
- Test system: Hepatotoxicity;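 also: Hepatitis-related hepatic side effect score taken from the training data of DILIps, a prediction system for drug-induced liver injury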; also: call rule not given here
Reply with just the number.

{"columns": ["molecule", "subject of test", "assay result"],
 "data": [
  ["CCCCNc1cc(C(=O)O)cc(S(N)(=O)=O)c1Oc1ccccc1 [BUMETANIDE]", "Hepatotoxicity", 0],
  ["CO/N=C(\\C(=O)N[C@@H]1C(=O)N2C(C(=O)O)=C(COC(N)=O)CS[C@H]12)c1ccco1 [CEFUROXIME]", "Hepatotoxicity", 1]
]}

The record that follows has no HepSE_hepatitis shown yet.
Ask | Enter reported HepSE_hepatitis observed with Hepatotoxicity for CCC[C@@]1(CCc2ccccc2)CC(O)=C([C@H](CC)c2cccc(NS(=O)(=O)c3ccc(C(F)(F)F)cn3)c2)C(=O)O1
Reply | 1
